// data source = BindingDB's records for doi:10.1021/jm400568p

# Target desc: DNA-(apurinic or apyrimidinic site) endonuclease (Homo sapiens, UniProt P27695)
# Sequence (P27695 whole entry): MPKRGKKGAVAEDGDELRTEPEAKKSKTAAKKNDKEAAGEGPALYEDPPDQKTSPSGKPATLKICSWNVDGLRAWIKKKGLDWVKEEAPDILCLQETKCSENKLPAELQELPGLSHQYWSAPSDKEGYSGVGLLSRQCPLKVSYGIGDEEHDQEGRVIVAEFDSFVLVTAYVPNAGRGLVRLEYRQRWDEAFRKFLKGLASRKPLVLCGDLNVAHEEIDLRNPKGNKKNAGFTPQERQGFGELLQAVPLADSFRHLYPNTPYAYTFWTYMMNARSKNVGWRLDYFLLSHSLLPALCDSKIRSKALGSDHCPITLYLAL
# Test method notes: Inhibition of APE-1 (unknown origin) using double-stranded AP-site containing DNA as substrate after 30 mins by fluorescence assay
pIC50: −log10 of the molar value.
Measured property: pIC50

Request: State the recorded pIC50 for this entry: Cn1nc(-c2ccccc2)c(O)c2c(=O)[nH]c(=N)nc1-2
Response: < 3.70
